target: human OT7T175 (metastin receptor) (human, UniProt Q969F8 1-398); assay: cell-based or functional assay
Sequence (Q969F8 whole entry L364H): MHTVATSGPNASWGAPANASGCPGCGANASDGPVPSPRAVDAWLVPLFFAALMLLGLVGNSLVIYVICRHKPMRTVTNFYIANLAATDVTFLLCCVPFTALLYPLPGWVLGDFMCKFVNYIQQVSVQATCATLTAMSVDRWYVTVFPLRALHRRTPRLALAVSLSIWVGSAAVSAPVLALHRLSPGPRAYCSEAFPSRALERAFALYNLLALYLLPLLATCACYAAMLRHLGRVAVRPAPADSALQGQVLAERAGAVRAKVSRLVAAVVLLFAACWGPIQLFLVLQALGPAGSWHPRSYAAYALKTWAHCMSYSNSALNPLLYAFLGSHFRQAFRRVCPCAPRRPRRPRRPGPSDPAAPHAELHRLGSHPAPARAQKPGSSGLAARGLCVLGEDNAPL
Non-standard residues stand in square brackets, D forms with d. *: point of attachment. Propanoyl(3-indol-3-yl) = O=C(CCc1c[nH]c2ccccc12)*; indole‑3‑acetyl = O=C(Cc1c[nH]c2ccccc12)*; Arg(Me) = CNC(=N)NCCC[C@H](N)C(=O)O; azaGly = NNC(=O)O
Ca ion level-increasing activity (FLIPR, 40 s) by entry:
test.readout: Ca ion level-increasing activity (FLIPR, 40 s) (EC50/MS10 EC50)

binder	result.units	number
{Propanoyl(3-indol-3-yl)}-NSFGLRF-NH2 (SMILES CC(C)C[C@H](NC(=O)CNC(=O)[C@H](Cc1ccccc1)NC(=O)[C@H](CO)NC(=O)[C@H](CC(N)=O)NC(=O)CCc1c[nH]c2ccccc12)C(=O)N[C@@H](CCCNC(=N)N)C(=O)N[C@@H](Cc1ccccc1)C(N)=O, also called Compound No. 114) [des(1-3)-3-(3-Indolyl)propionyl-MS10]	EC50/MS10 EC50	4.1
{indole‑3‑acetyl}-NSF[azaGly]L[Arg(Me)]F-NH2 (SMILES CNC(=N)NCCC[C@H](NC(=O)[C@H](CC(C)C)NC(=O)NNC(=O)[C@H](Cc1ccccc1)NC(=O)[C@H](CO)NC(=O)[C@H](CC(N)=O)NC(=O)Cc1c[nH]c2ccccc12)C(=O)N[C@@H](Cc1ccccc1)C(N)=O, also called Compound No. 266) [des(1-3)-Indole-3-acetyl-[AzaGly7,Arg(Me)9]MS10]	EC50/MS10 EC50	5.4
